B1: Hairpin Ribozyme (parent)
chain: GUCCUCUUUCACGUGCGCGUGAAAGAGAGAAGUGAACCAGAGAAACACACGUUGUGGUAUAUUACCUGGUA

# Variants of: B1
# ASSAY REMARKS: self-cleavage, relative activity (ratio to wild type); higher = more cleavage; co-transcriptional
REPORTED METRIC: self-cleavage
# output: bare number, no unit

mutation_notation="C12A G54C" meas_value=0.389
mutation_notation="U2C C48A" meas_value=0.0257

Now take the following variant into account.
In plain terms, A24U C65G has a documented self-cleavage of 0.302
